Reference source for all entries: PubChem BioAssay (EPA / NIEHS)

- assay: APR_HepG2_StressKinase_72hr: Apredica 72-hour HepG2 Assay for Stress Kinase (AID 2282921)
- measurement conditions: HepG2 stress kinase (phospho-c-Jun) imaging, actives raise or lower the signal
The source made the active and inactive calls. The calls were made as follows: active = hit-call score of the fitted dose curve at least 0.9, where 1 is the maximum; inactive = score below 0.9.
Outcome codes: true = active, false = inactive

{"columns": ["compound", "answer label"],
 "data": [
  ["CCCCCCCCCCCCCCCCO", "false"],
  ["CCCCC(CC)COC(=O)CCCCCCCC(=O)OCC(CC)CCCC (stereo not drawn)", "false"],
  ["Cn1cnc2c1c(=O)[nH]c(=O)n2C", "false"],
  ["Oc1ccc(O)cc1", "false"],
  ["CC(C)c1cccc(C(C)C)c1NC(=O)NS(=O)(=O)c1cc(C(C)(C)O)co1", "false"],
  ["NC1CCCCC1", "false"],
  ["COc1ccc(OC(F)(F)F)cc1CN[C@H]1CCCN[C@H]1c1ccccc1", "true"],
  ["NC=O", "false"],
  ["CN(C)CCCN1c2ccccc2Sc2ccc(Cl)cc21", "true"],
  ["CCN(CC)CCOc1ccc(C(=C(Cl)c2ccccc2)c2ccccc2)cc1", "false"],
  ["CO[C@@H]1COCC[C@@H]1N[C@@H]1CC[C@@](C(=O)N2CCc3ncc(C(F)(F)F)cc3C2)(C(C)C)C1", "false"],
  ["O=C(NS(=O)(=O)/C=C/c1cccs1)c1ccc(F)cc1Br", "false"],
  ["c1ccc2occc2c1", "false"],
  ["CC(C)OC(=O)C(C)(C)Oc1ccc(C(=O)c2ccc(Cl)cc2)cc1", "false"],
  ["CCCCCCC(CCCCCCCCCCC(=O)OCC(COC(C)=O)OC(C)=O)OC(C)=O (stereo not drawn)", "false"],
  ["CCCCCCCCCCCCCCOS(=O)(=O)O", "false"],
  ["C/C=C/C=C/C(=O)O", "false"],
  ["OCC(O)CO", "false"],
  ["O=C1OC(c2ccc(O)cc2)(c2ccc(O)cc2)c2ccccc21", "true"],
  ["Cc1ccc(-c2cc(C(F)(F)F)nn2-c2ccc(S(N)(=O)=O)cc2)cc1", "true"],
  ["CC1(C)C(=O)NC(=O)N1CO", "false"],
  ["C=CCCCCCCCCCCCC", "true"],
  ["COc1ccc(C(=O)Nc2nc3ccccc3c(NCc3ccccc3)c2C#N)cc1", "false"],
  ["O=Cc1ccccc1C=O", "false"],
  ["CN(C)CCCN(C)CCCN(C)C", "false"],
  ["Nc1nc(=S)c2[nH]cnc2[nH]1", "false"],
  ["CC(C)(O)c1ccc(CNC(=O)c2cccnc2Oc2ccc(F)cc2)cc1", "false"],
  ["CSc1ccc(Oc2ccc(S(N)(=O)=O)cc2CN(C)C)cc1C", "false"]
]}

----------
- Read-out: flavin-containing dimethylaniline monooxygenases 3 (FMO3), FMO3 (gene 2328)
- assay: LTEA_HepaRG_FMO3: Life Technologies and Expression Analysis (LTEA) Assay for flavin-containing dimethylaniline monooxygenases 3 (FMO3) using HepaRG (AID 2283453)
- measurement conditions: mRNA level, 48 h; actives raise or lower the signal
- Procedure: LTEA_HepaRG is a cell based, multiplexed-readout assay that uses HepaRG, a human liver cell line, with measurements taken at 48 hours after chemical dosing on a 96-well plate.LTEA_HepaRG_FMO3 is one of 102 assay component(s) measured in the LTEA HepaRG cell culture assay. It is a marker of NR mediated metabolism.Data from the assay component LTEA_HepaRG_FMO3 was analyzed into 1 endpoint. […]
Active and inactive are the calls of the source. Rule for the calls: active = hit-call score of the fitted dose curve at least 0.9, where 1 is the maximum; inactive = score below 0.9.
Outcome codes: active, inactive

{"columns": ["molecule", "answer label"],
 "data": [
  ["CC(C)OC(=O)C(C)(C)Oc1ccc(C(=O)c2ccc(Cl)cc2)cc1", "inactive"],
  ["Oc1ccccc1O", "inactive"],
  ["C/C=C/c1ccc(OC)cc1", "inactive"],
  ["CCCCCCC(CCCCCCCCCCC(=O)OCC(COC(C)=O)OC(C)=O)OC(C)=O (stereo not given)", "inactive"],
  ["CC(C)(O)c1ccc(CNC(=O)c2cccnc2Oc2ccc(F)cc2)cc1", "inactive"],
  ["CC(C)NCC(O)c1ccc(O)c(O)c1 (stereo not given)", "active"],
  ["O=C1c2c(O)cccc2Cc2cccc(O)c21", "inactive"],
  ["CCOCCOCCO", "inactive"],
  ["Nc1nc(Cl)nc2c1ncn2[C@H]1C[C@H](O)[C@@H](CO)O1", "active"],
  ["CCCCC(CC)CO (stereo not given)", "inactive"],
  ["O=C1OC(c2ccc(O)cc2)(c2ccc(O)cc2)c2ccccc21", "active"],
  ["CSc1ccc(Oc2ccc(S(N)(=O)=O)cc2CN(C)C)cc1C", "active"],
  ["O=Cc1ccccc1C=O", "inactive"],
  ["S=c1[nH]c2ccccc2s1", "inactive"],
  ["CCCCCCCC(=O)OC", "active"],
  ["CCc1cc(C2=C(C(=O)O)N(c3ccccc3C(F)(F)F)S(=O)(=O)c3ccccc32)cc2c1OCO2", "active"],
  ["Cc1cc(Cc2ccc(N)c(C)c2)ccc1N", "inactive"],
  ["CC(C)COC(=O)CCCCC(=O)OCC(C)C", "inactive"],
  ["CC(C)c1cccc(C(C)C)c1", "inactive"],
  ["O=C(O)CN(CC(=O)O)CC(=O)O", "inactive"],
  ["O=C(O)c1[nH]n(-c2ccc(S(=O)(=O)O)cc2)c(=O)c1N=Nc1ccc(S(=O)(=O)O)cc1", "inactive"],
  ["C=CCc1ccc(OC)c(OC)c1", "inactive"],
  ["CS(=O)(=O)c1ccc([C@@H](C[C@H]2CCC(=O)C2)C(=O)Nc2cnccn2)cc1Cl", "inactive"],
  ["COC(=O)[C@H]1[C@H]2C[C@@H]3c4[nH]c5cc(OC)ccc5c4CCN3C[C@H]2C[C@@H](OC(=O)c2cc(OC)c(OC)c(OC)c2)[C@@H]1OC", "active"],
  ["CC(=O)[C@@]1(O)CC[C@H]2[C@@H]3CCC4=CC(=O)CC[C@]4(C)[C@H]3CC[C@@]21C", "inactive"]
]}

----------
- system tested: Androgen Receptor/SRC-1 Co-activator, AR (gene 367) (UniProt P10275)
- Sequence (P10275 whole entry, looked up): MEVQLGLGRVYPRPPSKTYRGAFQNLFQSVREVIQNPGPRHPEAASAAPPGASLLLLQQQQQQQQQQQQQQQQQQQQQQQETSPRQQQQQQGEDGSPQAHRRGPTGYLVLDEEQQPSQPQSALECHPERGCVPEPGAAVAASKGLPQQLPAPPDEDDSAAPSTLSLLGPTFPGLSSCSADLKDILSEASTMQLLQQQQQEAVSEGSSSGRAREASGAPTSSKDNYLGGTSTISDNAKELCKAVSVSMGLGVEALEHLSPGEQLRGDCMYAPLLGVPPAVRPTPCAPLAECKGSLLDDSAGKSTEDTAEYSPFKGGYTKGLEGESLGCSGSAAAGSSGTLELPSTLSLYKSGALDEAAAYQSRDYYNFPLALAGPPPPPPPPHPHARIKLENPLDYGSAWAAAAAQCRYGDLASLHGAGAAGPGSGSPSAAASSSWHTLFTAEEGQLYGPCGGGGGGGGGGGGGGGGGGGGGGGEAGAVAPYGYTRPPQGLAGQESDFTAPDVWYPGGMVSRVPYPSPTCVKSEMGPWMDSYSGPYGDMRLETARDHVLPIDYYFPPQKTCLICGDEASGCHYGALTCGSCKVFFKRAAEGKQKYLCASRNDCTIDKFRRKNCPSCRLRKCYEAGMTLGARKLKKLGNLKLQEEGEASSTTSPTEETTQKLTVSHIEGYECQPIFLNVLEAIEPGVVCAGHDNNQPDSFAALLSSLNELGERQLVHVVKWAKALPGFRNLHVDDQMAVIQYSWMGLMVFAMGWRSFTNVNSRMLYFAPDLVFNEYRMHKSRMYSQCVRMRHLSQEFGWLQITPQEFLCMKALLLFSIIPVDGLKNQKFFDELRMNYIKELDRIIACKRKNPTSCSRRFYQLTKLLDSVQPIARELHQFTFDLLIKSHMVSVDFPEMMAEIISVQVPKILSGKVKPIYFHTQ
- assay: OT_AR_ARSRC1_0960: Odyssey Thera (OT) 16-hour HEK293T Protein-Complementation Assay for Androgen Receptor/SRC-1 Co-activator (AID 2283353);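 also: actives raise the signal above DMSO so potency reflects increased AR and SRC-1 complex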
The source made the active and inactive calls. How the source made its calls: active means hit-call score of the fitted dose curve at least 0.9, where 1 is the maximum; inconclusive means response in the unintended direction; inactive means score below 0.9.
Outcome codes: active, inactive

{"columns": ["compound", "answer label"],
 "data": [
  ["O=C(Oc1ccccc1)c1cccc(C(=O)Oc2ccccc2)c1", "inactive"],
  ["Cc1ccc(-c2cc(C(F)(F)F)nn2-c2ccc(S(N)(=O)=O)cc2)cc1", "active"],
  ["O=C1CCCCC1", "inactive"],
  ["Cc1cc(SC2=C(O)C[C@@](CCc3ccc(N)cc3)(C(C)C)OC2=O)c(C(C)(C)C)cc1CO", "inactive"],
  ["O=C1OC(c2ccc(O)cc2)(c2ccc(O)cc2)c2ccccc21", "active"],
  ["NCCOCCOCCN", "inactive"],
  ["C#CC(O)C(CC)CCCC (centres undefined)", "active"],
  ["Cc1c(C)c2c(c(C)c1O)CCC(C)(COc1ccc(CC3SC(=O)NC3=O)cc1)O2 (centres undefined)", "active"],
  ["O=Cc1ccccc1C=O", "active"]
]}

----------
- Read-out: Macrophage colony-stimulating factor (MCSF), CSF1 (gene 1435)
- assay: BSK_hDFCGF_MCSF: BioMAP Diversity Plus: hDFCGF Assay for Macrophage colony-stimulating factor (MCSF) Biomarker Activity (AID 2283060)
- measurement conditions: primary human foreskin fibroblasts; actives raise or lower the signal
Activity calls are given as the source filed them. How the source made its calls: active means hit-call score of the fitted dose curve at least 0.9, where 1 is the maximum; inactive means score below 0.9.
Outcome codes: yes for active, no for inactive

{"columns": ["compound", "answer label"],
 "data": [
  ["Oc1ccccc1O", "yes"],
  ["COC(=O)CCCC(=O)OC", "no"],
  ["CC1(C)C(=O)NC(=O)N1CO", "no"],
  ["CC(C)NCC(O)c1ccc(O)c(O)c1 (stereo not given)", "no"],
  ["c1ccc2occc2c1", "no"],
  ["Cc1cc(SC2=C(O)C[C@@](CCc3ccc(N)cc3)(C(C)C)OC2=O)c(C(C)(C)C)cc1CO", "no"],
  ["O=C1c2c(O)cccc2Cc2cccc(O)c21", "yes"],
  ["O=NO", "no"],
  ["C=CCCCCCCCCCCCC", "no"],
  ["CN(C)C(=O)NC1(c2ccccc2)CCN(CC[C@@]2(c3ccc(F)c(F)c3)CN(C(=O)c3ccccc3)CCO2)CC1", "no"],
  ["C=CCc1ccc(OC)c(OC)c1", "no"],
  ["NCCOCCOCCN", "no"],
  ["NC(=Nc1ccccc1)Nc1ccccc1", "yes"],
  ["Cc1occc(=O)c1O", "no"],
  ["N[C@@H](Cc1c[nH]c2ccccc12)C(=O)O", "no"],
  ["CCC(C)N(C)C(=O)c1cc2ccccc2c(-c2ccccc2Cl)n1 (stereo not given)", "no"],
  ["CC(C)c1cccc(C(C)C)c1NC(=O)NS(=O)(=O)c1cc(C(C)(C)O)co1", "no"],
  ["Oc1ccc(O)cc1", "yes"],
  ["Nc1nc(Cl)nc2c1ncn2[C@H]1C[C@H](O)[C@@H](CO)O1", "yes"],
  ["CS(=O)(=O)c1ccc([C@@H](C[C@H]2CCC(=O)C2)C(=O)Nc2cnccn2)cc1Cl", "no"],
  ["CCCCCCC(CCCCCCCCCCC(=O)OCC(COC(C)=O)OC(C)=O)OC(C)=O (stereo not given)", "no"],
  ["C/C=C/C=C/C(=O)O", "no"],
  ["CCCCC(CC)COP(=O)(OCC(CC)CCCC)OCC(CC)CCCC (stereo not given)", "no"],
  ["CSc1ccc(Oc2ccc(S(N)(=O)=O)cc2CN(C)C)cc1C", "no"],
  ["CC(=O)CC(c1ccccc1)c1c(O)c2ccccc2oc1=O (stereo not given)", "no"],
  ["CC(C)OC(=O)C(C)(C)Oc1ccc(C(=O)c2ccc(Cl)cc2)cc1", "no"],
  ["C#CC(O)C(CC)CCCC (stereo not given)", "no"],
  ["O=C(O)c1cccnc1", "no"],
  ["CCCCOC(=O)CCCCC(=O)OCCCC", "no"],
  ["CCCC[C@H]1CN(CC2CCOCC2)C(=O)OC12CCN(C1(C)CCN(C(=O)c3c(C)ncnc3C)CC1)CC2", "no"],
  ["CCOCCOCCO", "no"],
  ["CC(C)c1cccc(C(C)C)c1", "no"],
  ["Cc1ccc(-c2cc(C(F)(F)F)nn2-c2ccc(S(N)(=O)=O)cc2)cc1", "no"],
  ["CC(=O)OC1CC(C)OC(C)O1 (stereo not given)", "no"],
  ["O=C(O)CC(O)(CC(=O)O)C(=O)O", "no"],
  ["COc1ccc(C(=O)Nc2nc3ccccc3c(NCc3ccccc3)c2C#N)cc1", "no"],
  ["CCCC(=O)O", "no"],
  ["Cc1cc(Cc2ccc(N)c(C)c2)ccc1N", "no"],
  ["Cc1cn([C@H]2C=C[C@@H](CO)O2)c(=O)[nH]c1=O", "no"],
  ["CCCCC(CC)CO (stereo not given)", "no"],
  ["CC(COCC(C)OC(=O)c1ccccc1)OC(=O)c1ccccc1 (stereo not given)", "no"],
  ["CCN(CC)CCOc1ccc(C(=C(Cl)c2ccccc2)c2ccccc2)cc1", "yes"],
  ["CN(C)C(=O)NC1(c2ccccc2)CCN(CCC[C@]2(c3ccc(Cl)c(Cl)c3)CCCN(C(=O)c3ccccc3)C2)CC1", "no"],
  ["CC(C)COC(=O)CCCCC(=O)OCC(C)C", "no"],
  ["COC(=O)CCC(=O)OC", "no"],
  ["O=C1O[C@H]([C@H](O)CO)C(O)=C1O", "no"],
  ["CCCCCCC(C=O)=Cc1ccccc1", "no"],
  ["CCCCC(CC)COC(=O)CCCCCCCC(=O)OCC(CC)CCCC (stereo not given)", "no"],
  ["O=Cc1ccccc1C=O", "no"],
  ["Cn1cnc2c1c(=O)[nH]c(=O)n2C", "no"]
]}
